B1: KAT8 regulatory NSL complex subunit 2, residues 28 to 91; numbered along this chain, Q9H9L4 (parent)
chain: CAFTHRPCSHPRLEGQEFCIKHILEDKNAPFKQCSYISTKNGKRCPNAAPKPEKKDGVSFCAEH

Variants of: B1
Assay Summary: abundance fitness (aPCA) (normalised: wild type 0, dead -1); higher = more abundant; growth selection in yeast, the domain comes from the species named
Condition Label: Homo sapiens
If the reported abundance fitness equals or exceeds -0.1, assign rule met. If not, assign rule not met.

> print(dat)
    mutation.key      category
 1          R12I  rule not met
 2          D26T      rule met
 3          A49H  rule not met
 4          Q33K      rule met
 5          A62V      rule met
 6          K51A      rule met
 7          C34Y  rule not met
 8          E63Q  rule not met
 9          K51E      rule met
10          K43G  rule not met
11           R6Y      rule met
12          L24Q  rule not met
13          C45S  rule not met
14          E63F  rule not met
15          I20D  rule not met
16          A49C  rule not met
17          P11S  rule not met
18          A62G      rule met
19          V58W  rule not met
20          N47Y  rule not met
21          N47C      rule met
22          R12S  rule not met
23          L24I  rule not met
24          C61H  rule not met
25          K32Y  rule not met
26          S38T  rule not met
27          E17H  rule not met
28          P52A      rule met
29          H64D  rule not met
30          N28V  rule not met
31          K43D      rule met
32          P50I  rule not met
33          P52M      rule met
